# measurement-notes: yeast display, Sf9 membrane polyspecificity reagent, FACS + sequencing; frameworks hold sequencing errors

sequence	polyreactivity (PSR sort gate)
QVQLQESGAGLVQAGGSLRLSCAASGSISAVGAMCWYRQAPGKEREFAASVNWATNTNYADSVKGRFTISRDNAKNTLYLQMNSLKPEDTAVYYCAVLPDWETRHDYWGHGTQVTVSS	low polyreactivity
QVQLVESGGGLVQAGGSLRLSCAASGYIFGGYAMGWYRQAPGKERELVAGISIGVGSTYYADSVKGRFTISRDNAKNTVYLQMNSLKPEDTAVYYCNRDSVGYDYWGQGTQVTVSS	low polyreactivity
QVQLVESGGGLVQAGGSLRLSCAASGRIFWVYAMGWYRQAPGKERELVAAISSTGDGTYYADSVKGRFTISRDNAKNTVYLQMNSLKPVDTAVYYCAADFRVARSPLSGGSDYWGQGTQVTVSS	low polyreactivity
QVQLVESGGGLVQAGGSLRLSCAASGRIFRYNTLGWYRQAPGKERELVAAINSSGGRTYYADSVKGRFTISRDNAKNTVYLQMNSLKPEDTAVYYCAAVIYVLSGPGYDYWGQGTQVTVSS	high polyreactivity
QVQLVESGGGLVQAGGSLRLSCAASGRTFKKYAMGWYRQAPGKEREVVAAITSRVGSTSYADSVKGRFTISRDNAKNTVYLQMNSLKPEDTAVYYCAARYSVGTGYGYWGQGTQVTVSS	high polyreactivity
QVHLVESGGGLVQAGGSLRLRCAASGGTSRSYAKGWYRPAPGKERELVAAISWRGGRTYYADSVKGRFTISRDNAKNTVYFQMNRLKPEDTAVYDCAARLPGYYGIGDYWGLGTQVTVSS	high polyreactivity
QVQLVESGGGLVQAGGSLRLSCAASGSIFVNKGMGWYRQAPGKERELVAAIRLSTGSTYYADSVKGRFTISRDNAKNTVYLKINSLKREDTAVDDCATRYYIWGNWGQGTQVTGSS	high polyreactivity
QVQLVESGGGLVQAGGSLRLSCAASGRIFSRNAMGWYRQAPGKERELVAAISGSGGSTYYADSVKGRFTISRDNAKNTVYLQMNSLKPEDTAVYYCNKFGYHREYDYWGQGTQVTVSS	low polyreactivity
QVQLVESGGGLVQAGGSLRLSCAASGSTFSYYAMGWYRQAPGKERELVAAITSSGGRTYYADSVKGRFTISRDNAKYTVYLQMNSLKPEDTAVYYCATRKPRYQRAFDSWGQGTQVTVSA	high polyreactivity
QVQLVESGGGLVQAGGSLRLSCAASGFIFSQYTMGWYRQAPGKERELVAAISFSDSSTFYADSVKGRFTISRDNAKNTVYLQMNSLKPEDTAVYYCAAEWGYRQRYFYATGGYWGQGTQVTVSS	low polyreactivity
QVQLVESGGGLVQAGGSLRLSCAASGFTFGYYAMGWYRQAPGKERELVAAISSSGGSTYYADSVKGRFTISRDNAKNTVYLQMNSLKQEDTAVYYCSTGFLQNYYKYSSSFRFYYWGQGTQVTVSS	high polyreactivity

###

# measurement-notes: yeast display, Sf9 membrane polyspecificity reagent, FACS + sequencing; frameworks hold sequencing errors

sequence	polyreactivity (PSR sort gate)
QVQLVESGGGLVQAGGSLRLSCAASGRTFVNYAMGWYRQAPGKERELVAAITSDGSTSYADSVKGRFTISRDNAKNTVYLQMNSLKPEDTAVYFCAKDFFEHSPVSHTYSSSKYDYWGQGTQVTVSS	low polyreactivity
QGQLVESGGGLVQAGGSLRLSCAASGGIFSDYAMGWYIQEPGKEREFVAAISVRGTSTDYADSVKGRFTISRDNAKNTVYLQMNSLKPEDTAVYYCNAQGAPQVRDVLPYEFDYWGQGTQVTVSS	low polyreactivity
QVQLVESGGGLVQAGGSLRLSCAASGFIFVFYAMGWYRQAPGKERELVAAITWSGGGTYYADSVKGRFTISRDNAKNTVYLQMNSLKPEDTAVYYCNAEEPQYYYVLDKLYDYWGQGTQVTVSS	low polyreactivity
QDQLVESGGGLVQEGGSLRLSCAASGRTFISKVMGWYRQAPGKERELVAAISGSSGSTRYADSVKGRFTISRDYAKNTVYLQMNSLKPEDTAVYYCAPRAPWPKWGYYYWGLGTQVTVSS	high polyreactivity
QVQLVESGGGLVQAGGSLRLSCAASGRIFSVNVMVWYRQAPGKERELVAAITWSVGSTYYADSVKARFTISRDNAKYTVSLQMYSLKPEDTAVYYSAARVPPVYGRVGGYHYWGQGTQVTVSS	low polyreactivity
QVQLVESGGGLVQAGGSLRLSCAASGITFRHYAMGWYRQAPGKEREMVARIRGGGVSTYYADSVKGRFTISRDNAKNTVYLQMNSLKPEDTAVYYCNAVFESWWGDYDYWGQGTQVTVSS	high polyreactivity
QVQLVESGGGLVQAGGILRLSCAASGFTFNNYAMGWYRQAPGKERELVAAISSGAGTYYAESVKGRFTISRDNAKNTVYLQMNSLKPEDTGVYYCNASLKYQGRTRITYRHDYCGQGTQVTVSS	low polyreactivity
QVQLVESGGGLVQAGGSLRLSCAASGSIIGRYAMGWYRQAPGKERELVAAISTGGGRTYYADSVKGRFTISRDNAKNTVYLQLNSLKPEDTAVYYCNAGPYKGWGRMDYWGQGTQVTVSS	high polyreactivity
QVQLVESGGGLVQAGGSLRLSCAASGSNFRSYAMGWYIQAPGKERELVAAITWGGNTYYADSVKGRFTISRDNAKNTVYLQMNSLKPEDTAVYYCAAKSYYTRRSKYDYWGQGTQVTVSS	high polyreactivity
QDQLVESGGGLVQAGGSLRLRCAASGSILWYYAMGWYRQAPGKERELVASISYSGGSTYYADSVKGRFTISRDNAKNTVYLQMNSLKPEDTAVYYCNADTITYQGYDYGYWGQGTQVTVSS	low polyreactivity
QVQLVESGGRLVQAGGSLRLSCAASGYNFSKYAMGWYRQAPGKERELVAAISGSGGSTSYADSVKGRFTISRDNAKNTVYLHMNSLKPEDTAVYYCNARSRLQRGRMDYWGQGTQVTVSS	high polyreactivity

###

# measurement-notes: yeast display, Sf9 membrane polyspecificity reagent, FACS + sequencing; frameworks hold sequencing errors
readout-name: polyreactivity (PSR sort gate)

sequence	readout-name	measured-value
QVQLVESGGGLVQAGGSLRLSCAASGSIVYYYGMGWYRPAPGKETELVAAISTGGSTYYADSVKGRFTISRDKAKKTVYLQMNSLKPEDTADFYCSADYYTQWQTRYDYWGQGTQVTVSS	polyreactivity (PSR sort gate)	low polyreactivity
QVQLVESGGGLVQAGGSLRLSCAASGSIFIYYAMGWYRQAPGKERELVAAISFSGARTYYADSVKGRFTISRDNAKNTVFLQMNSLKPEDTAVYYCNVEIGTGDYDYWGQGTQVTVSS	polyreactivity (PSR sort gate)	low polyreactivity
QVQLVESGGGLVQAGGSLRLSCAASGFIFEAYTMGWSRQAPGKERELVASIDWDGGSTYYADSVKGRFTISRDNAKNTVYLQMNSLKPEDTAVYYCAADSRQYDELGDYDYWGQGTQVTVSS	polyreactivity (PSR sort gate)	low polyreactivity
QVQLVESGGGLVQAGGSLRLSCAASGFISSHYAMGWYRQAPGKERELVAAISTNGGSTYYADSVKGRFTISRDNAKNTVYLQMNSLKPEDTAVYYCAAEFAVSFYWSWLGQDYNYWGQGTQVTVSS	polyreactivity (PSR sort gate)	high polyreactivity
QVQHVESGGGLVQAGGSLRLRCAASGSTFQYNPMGWYRQAPGKERELVASITRGGNTNYADSVKGRFTISRDNAKNTVYLQMNSLKPEDTAVYYCAARSTYRVSHVDYWGQGTQVTVSS	polyreactivity (PSR sort gate)	low polyreactivity
QVHLVESGGGLVQAGGSLRLSCAASGSTCYWYTMGWYRKAPGKERELVARISSSGSTNYADSVKGRFTISRDNEKNTVYLLMNILKAEDTAVYYCNIDWFYRGYDYWGQGTQVTVSS	polyreactivity (PSR sort gate)	high polyreactivity
QVQLVESGGGLVQAGGSLRLRCAASGSTLYIYAMGWYRQAPGKERELVAAITSSTGSTYADSVKGRFTISRDNAKNTVYLQMNSLKPEDTAVYYCNAGGPLQPYDYWGQGTQVTVSS	polyreactivity (PSR sort gate)	low polyreactivity
QVQLVESGGGLVQAGGSLRLSCAASGITFVRYTMGWYRQAPGKERQFVAGITRGGSTCYADSVKGRFTISRDNAKNTVYLQMNSLKPEDTAVYYCAARPRFLRASVEYDYWGQGTQVTVSS	polyreactivity (PSR sort gate)	high polyreactivity
QVQLVESGGGLVQAGGSLRLSCAASGITSDQNAMGWYRQAPGKERELVAAISWSGGSTYYADSVKGRFTISRDNAKNTVYLQMNSLKPEDTAVYYCAADIYTAYYEFDYWGQGTQVTVSS	polyreactivity (PSR sort gate)	low polyreactivity
QVQLVESGGGLVQAGGSLRLSCAASGSTSRTYAMGWYRQAPGQEMELVAAISSSGGRTYYADSVKGRFTISRDTAKNTVYLEMNSLKPEDTAVYYCNARTYSYRGYNYWGQGTQVTVSS	polyreactivity (PSR sort gate)	high polyreactivity
QVQLVESGGGLVQAGGSLRLSCAASGSTLNRYAMGWYRQAPGKERELVAAISISGGRTYYADSVKGRFTISRDNAKNTVYLQMNSLKPEDTAVYYCAADQYYYRYIRTSKYDYWGQGTQVTVSS	polyreactivity (PSR sort gate)	high polyreactivity
